B1: Retinoic acid receptor RXR-alpha, residues 132 to 208; numbered along this chain, P19793 (parent)
chain: KHICAICGDRSSGKHYGVYSCEGCKGFFKRTVRKDLTYTCRDNKDCLIDKRQRNRCQYCRYQKCLAMGMKREAVQEE

variants of: B1; test: abundance fitness (aPCA) (normalised: wild type 0, dead -1); higher = more abundant; growth selection in yeast, the domain comes from the species named; conditions: Homo sapiens
Classify by measured abundance fitness: label 1 if it is equal to or exceeds -0.01, label 0 if it is smaller.

>  <Mutation key>
T39A

>  <Class assignment>
label 0

$$$$
>  <Mutation key>
R10T

>  <Class assignment>
label 0

$$$$

Item K14R with abundance fitness of -0.01 or above? label 0

Item H2C with abundance fitness of -0.01 or above? label 0
